Record: IC50 reported on Sodium-dependent dopamine transporter (Rattus norvegicus).
Sequence (P23977 whole entry): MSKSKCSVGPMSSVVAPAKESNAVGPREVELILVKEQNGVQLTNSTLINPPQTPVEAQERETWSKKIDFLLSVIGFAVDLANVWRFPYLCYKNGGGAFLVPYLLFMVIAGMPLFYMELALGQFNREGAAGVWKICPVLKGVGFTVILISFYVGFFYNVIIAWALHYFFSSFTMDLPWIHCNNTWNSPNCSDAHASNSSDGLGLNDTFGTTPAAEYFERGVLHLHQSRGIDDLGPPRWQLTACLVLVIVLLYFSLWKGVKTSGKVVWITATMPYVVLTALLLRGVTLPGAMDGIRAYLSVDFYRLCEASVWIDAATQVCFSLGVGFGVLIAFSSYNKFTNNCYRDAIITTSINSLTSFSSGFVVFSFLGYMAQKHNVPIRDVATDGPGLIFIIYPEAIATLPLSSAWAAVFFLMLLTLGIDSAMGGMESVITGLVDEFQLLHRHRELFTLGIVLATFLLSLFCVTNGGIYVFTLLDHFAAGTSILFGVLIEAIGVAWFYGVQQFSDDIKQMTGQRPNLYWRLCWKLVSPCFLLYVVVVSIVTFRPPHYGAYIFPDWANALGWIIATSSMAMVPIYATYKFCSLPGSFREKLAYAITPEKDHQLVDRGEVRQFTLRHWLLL
endpoint: IC50 (nM)

compound	endpoint	val
COc1ccc(C2(O)c3ccccc3C3=NCCCN32)cc1OC (configuration not stated)	IC50	87
OC1(c2cccc(C(F)(F)F)c2)c2ccccc2C2=NCCN21 (configuration not stated)	IC50	230
O=S(=O)(c1ccc(Cl)cc1)c1ccccc1C1=NCCN1	IC50	6500
OC1(c2ccc(C(F)(F)F)cc2)c2ccccc2C2=NCCN21 (configuration not stated)	IC50	290
OC1(c2ccc(CN3CCCCC3)cc2)c2ccccc2C2=NCCCN21 (configuration not stated)	IC50	1200
OC1(c2cccnc2)c2ccccc2C2=NCCN21 (configuration not stated)	IC50	640
COc1ccc(C2(O)c3ccccc3C3=NCCN32)cc1OC (configuration not stated)	IC50	6900
OC1CN=C2c3ccccc3C(O)(c3ccc(Cl)cc3)N2C1 (configuration not stated)	IC50	10
CC(C)(C)C1(O)c2ccccc2C2=NCCN21 (configuration not stated)	IC50	9500
OC1(c2ccc3ccccc3c2)c2ccccc2C2=NCCN21 (configuration not stated)	IC50	23
O=C(c1ccc(Cl)cc1)c1ccccc1-c1ncc[nH]1	IC50	2800
OC1(c2ccc(Cl)cc2)c2ccc3ccccc3c2C2=NCCCN21 (configuration not stated)	IC50	37
OC1(C23C[C@H]4C[C@@H](C2)C[C@@H](C3)C4)c2ccccc2C2=NCCN21 (some centres not stated)	IC50	4900
OC1(c2ccc(Cl)cc2)c2ccccc2C2=NCCCN21 (configuration not stated)	IC50	1
OC1(c2ccc(Cl)cc2)c2cccc3cccc(c23)C2=NCCCN21 (configuration not stated)	IC50	42
OC(c1ccc(Cl)cc1)c1ccccc1C1=NCCN1 (stereo in doubt; 53)	IC50	190
Cc1ccc(C2(O)c3ccccc3C3=NCCN32)cc1 (configuration not stated)	IC50	93
COC(=O)c1ccc(C2(O)c3ccccc3C3=NCCN32)cc1 (configuration not stated)	IC50	3300
Cn1ccnc1-c1ccccc1C(=O)c1ccc(Cl)cc1	IC50	4300
OC1(c2ccc(COc3ccccc3)cc2)c2ccccc2C2=NCCN21 (configuration not stated)	IC50	720
Clc1ccc(Sc2ccccc2C2=NCCN2)cc1	IC50	320
OC1(c2ccc(OCc3ccccc3)cc2)c2ccccc2C2=NCCCN21 (configuration not stated)	IC50	100
CC1(C2(O)c3ccccc3C3=NCCN32)CCCCC1 (configuration not stated)	IC50	3500
CC1(C)COC(c2cccc(C(O)c3ccc(Cl)cc3)c2)=N1 (configuration not stated)	IC50	16000
C=CCOc1ccc(C2(O)c3ccccc3C3=NCCCN32)cc1 (configuration not stated)	IC50	72
OC1(C/C=C/c2ccccc2)c2ccccc2C2=NCCN21 (configuration not stated)	IC50	9300
[O-][S+](c1ccc(Cl)cc1)c1ccccc1C1=NCCN1 (configuration not stated)	IC50	7300
COc1ccc(C2(O)c3ccccc3C3=NCCCN32)cc1 (configuration not stated)	IC50	2.5
OC1(c2ccc(Cl)cc2)c2ccccc2C2=N[C@@H]3CCCC[C@H]3N21 (some centres not stated)	IC50	34
OC(c1ccc(Cl)cc1)c1ccccc1C1=NCCN1 (stereo in doubt; 54)	IC50	2700
OC1(c2ccccn2)c2ccccc2C2=NCCN21 (configuration not stated)	IC50	3700
OC1(c2ccc(Cl)cc2)c2ccc3ccccc3c2C2=NCCN21 (configuration not stated)	IC50	16
Clc1ccc(Cc2ccccc2C2=NCCN2)cc1	IC50	4000
OC1(c2ccc3ccccc3c2)c2ccc3ccccc3c2C2=NCCN21 (configuration not stated)	IC50	38
Oc1ccc(C2(O)c3ccccc3C3=NCCCN32)cc1 (configuration not stated)	IC50	3.4
OC1(c2ccncc2)c2ccccc2C2=NCCN21 (configuration not stated)	IC50	63
CN(C)Cc1ccc(C2(O)c3ccccc3C3=NCCN32)cc1 (configuration not stated)	IC50	2800

The measurements presented in this section are drawn from ChEMBL document CHEMBL1135777.
